The measurements presented in this section are drawn from ChEMBL document CHEMBL1121494.

Test system: Cavia porcellus
Assay: Relative potency against bronchoconstrictions, induced by intravenous administration of histamine at doses […] in guinea pig.
Format: functional
Returns: string. Value is T if measured Relative potency is below 10, and F if it is greater than or equal to it.

Check out these entries, answers already filled in.
[
  {
    "Compound": "CCCCC[C@H](O)/C=C/[C@H]1C(SCCCO)CC(=O)[C@@H]1C/C=C\\CCCC(=O)OC (stereo partly drawn)",
    "Subject Of Test": "Cavia porcellus",
    "Answer Label": "T"
  },
  {
    "Compound": "CCCCC(C)(O)C/C=C/[C@H]1[C@H](SCCO)CC(=O)[C@@H]1C/C=C\\CCCC(=O)OC (mixture of isomers)",
    "Subject Of Test": "Cavia porcellus",
    "Answer Label": "F"
  },
  {
    "Compound": "CCCCC[C@H](O)/C=C/[C@H]1C(SCC(=O)O)CC(=O)[C@@H]1C/C=C\\CCCC(=O)OC (stereo partly drawn)",
    "Subject Of Test": "Cavia porcellus",
    "Answer Label": "T"
  },
  {
    "Compound": "CCCCC[C@H](O)/C=C/[C@H]1C(SCCCS)CC(=O)[C@@H]1C/C=C\\CCCC(=O)OC (stereo partly drawn)",
    "Subject Of Test": "Cavia porcellus",
    "Answer Label": "T"
  },
  {
    "Compound": "CCCCC[C@@H](O)/C=C/[C@H]1[C@H](SCCO)CC(=O)[C@@H]1C/C=C\\CCCC(=O)OC",
    "Subject Of Test": "Cavia porcellus",
    "Answer Label": "F"
  },
  {
    "Compound": "CCCCC[C@H](O)/C=C/[C@H]1C(SCC)CC(=O)[C@@H]1C/C=C\\CCCC(=O)OC (stereo partly drawn)",
    "Subject Of Test": "Cavia porcellus",
    "Answer Label": "T"
  }
]

Data request: For this compound, is Relative potency lower than 10? CCCCC[C@H](O)/C=C/[C@H]1[C@H](OCCO)CC(=O)[C@@H]1CCCCCCC(=O)O (racemic)
Data returned: F

Data request: Given the entry CCCCC[C@H](O)/C=C/C1CCC(=O)[C@@H]1C/C=C\CCCC(=O)O (stereo partly drawn) , would its reported Relative potency be below 10?
Data returned: F

---

System: Cavia porcellus
Assay: Relative potency against bronchoconstrictions, induced by intravenous administration of histamine at doses […] in guinea pig.
Assay type: functional
Class satisfied: Relative potency at least 10. Class not satisfied: Relative potency below 10.

[
  {
    "Compound": "CCCCC[C@H](O)/C=C/[C@H]1C(SCC(=O)OCC)CC(=O)[C@@H]1C/C=C\\CCCC(=O)OC (stereo partly drawn)",
    "Answer Label": "not satisfied"
  },
  {
    "Compound": "CCCCCC(C)(O)/C=C/[C@H]1[C@H](SCCO)CC(=O)[C@@H]1CCCCCCC(=O)O (mixture of isomers)",
    "Answer Label": "satisfied"
  }
]

Data request: Kindly determine if Relative potency recorded for CCCCCC(O)CSC1CC(=O)[C@H](C/C=C\CCCC(=O)OC)[C@H]1/C=C/[C@H](O)CCCCC (stereo partly drawn) is above or exactly 10.
Data returned: not satisfied

Data request: Check if Relative potency >= 10 (inclusive). Item: CCCCC[C@H](O)/C=C/[C@H]1C(Sc2cccc(O)c2)CC(=O)[C@@H]1C/C=C\CCCC(=O)OC (stereo partly drawn)
Data returned: not satisfied

Data request: Would you say CCCCC[C@H](O)/C=C/[C@H]1[C@H](SCCO)CC(=O)[C@@H]1C/C=C\CCCC(=O)OC (racemic) shows Relative potency at minimum 10?
Data returned: satisfied

Data request: Determine whether measured Relative potency meets or exceeds 10 for CCCCC[C@H](O)/C=C/[C@H]1C(SCCS)CC(=O)[C@@H]1C/C=C\CCCC(=O)OC (stereo partly drawn)
Data returned: not satisfied

Data request: Check this compound for Relative potency at or above 10: CCCCC[C@H](O)/C=C/[C@H]1C(SCC(C)O)CC(=O)[C@@H]1C/C=C\CCCC(=O)OC (stereo partly drawn)
Data returned: not satisfied

Data request: Test whether the compound CCCCC[C@H](O)/C=C/[C@H]1[C@H](OCCO)CC(=O)[C@@H]1C/C=C\CCCC(=O)OC (racemic) records Relative potency of 10 or higher.
Data returned: not satisfied
